Experiment: Mean residence time in high fat fed healthy human at 50 mg, po administered as single dose coadministered with 100 mg of ritonavir
Format: ADME, organism-based
Conditions: in vivo
RECORDED_METRIC: MRT (h)

>>> value_observed("CCN1c2ncc(CCOc3cc[n+]([O-])c4ccccc34)cc2C(=O)N(C)c2cccnc21")
18.7

###

Assay: Apparent volume of distribution at steady state in healthy human at 62.5 mg, po administered as single dose coadministered with 100 mg of ritonavir
Format: ADME, organism-based
Settings: in vivo, read-out: Vss/F
RECORDED_METRIC: Vd/F (L)

>>> value_observed("CCN1c2ncc(CCOc3cc[n+]([O-])c4ccccc34)cc2C(=O)N(C)c2cccnc21 [BILR 355]")
113
